- TARGET_SYSTEM: rat mAChR M4 (Rattus norvegicus)
- Sequence (P08485 whole entry): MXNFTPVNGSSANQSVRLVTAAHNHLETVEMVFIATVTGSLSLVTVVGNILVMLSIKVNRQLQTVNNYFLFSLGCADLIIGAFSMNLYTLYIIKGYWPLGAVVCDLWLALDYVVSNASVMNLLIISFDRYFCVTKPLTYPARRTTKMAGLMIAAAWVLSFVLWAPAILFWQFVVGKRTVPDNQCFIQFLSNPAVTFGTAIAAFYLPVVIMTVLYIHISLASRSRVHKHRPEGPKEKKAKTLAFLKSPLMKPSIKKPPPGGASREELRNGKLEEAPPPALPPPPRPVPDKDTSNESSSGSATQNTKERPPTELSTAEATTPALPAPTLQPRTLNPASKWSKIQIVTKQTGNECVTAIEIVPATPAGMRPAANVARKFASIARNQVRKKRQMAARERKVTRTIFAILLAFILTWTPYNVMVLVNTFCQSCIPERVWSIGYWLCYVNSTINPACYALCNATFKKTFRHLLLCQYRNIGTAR
- METHOD_DESCRIPTION: mAChR M4 cell-based functional assay (calcium mobilization, EC80 acetylcholine), rat M4
- EXPERIMENTAL_CONTEXT: Table 10; M4/Gqi5/CHO-K1 cells, decrease of EC80 acetylcholine response
Mark met for IC50 under 400 nM, not met if at or over.

| SAMPLE_SMILES | CATEGORY_LABEL |
| --- | --- |
| COc1ccc(-c2ccc(N[C@H]3C[C@@H]4CN(CC5CCOCC5)C[C@@H]4C3)nn2)cc1F | met |
| CC(C)(C)CCN1C[C@H]2C[C@H](Oc3ccc(-c4cc(F)ccc4Cl)nn3)C[C@H]2C1 | met |
| CC(C)(C)CCN1C[C@H]2C[C@H](Oc3ccc(Cl)nn3)C[C@H]2C1 | not met |
| CC(=O)Nc1ccc(-c2ccc(O[C@H]3C[C@@H]4CN(CCC(C)(C)C)C[C@@H]4C3)nn2)cc1 | met |
| CC(C)(C)CCN1C[C@H]2C[C@H](Oc3ccc(-c4ccc5c(c4)OCO5)nn3)C[C@H]2C1 | met |
| CC(C)(C)CCN1C[C@H]2C[C@H](Nc3ccc(-c4ccc(F)cc4Cl)nn3)C[C@H]2C1 | met |
| FC(F)Oc1ccc(-c2ccc(N[C@H]3C[C@@H]4CN(CC5CCOCC5)C[C@@H]4C3)nn2)cc1 | met |
| c1cc(C2CC2)ncc1-c1ccc(N[C@H]2C[C@@H]3CN(CC4CCOCC4)C[C@@H]3C2)nn1 | not met |

###

- TARGET_SYSTEM: human mAChR M4 (Homo sapiens, UniProt P08173)
- Construct: expressed in transfected cells; host or cells: CHO-K1 (ATCC), stably co-expressing chimeric G protein Gqi5
- METHOD_DESCRIPTION: mAChR M4 cell-based functional assay (calcium mobilization, EC80 acetylcholine), human M4
- EXPERIMENTAL_CONTEXT: Table 10; M4/Gqi5/CHO-K1 cells, decrease of EC80 acetylcholine response
pIC50: −log10 of the molar value.
Parameter pIC50: see the listing below.

| SAMPLE_SMILES | pIC50 |
| --- | --- |
| c1cc(N2CCCC2)nnc1N[C@H]1C[C@@H]2CN(CC3CCOCC3)C[C@@H]2C1 | 7.39 |
| CS(=O)(=O)Nc1ccc(CN2C[C@H]3C[C@H](Nc4ccc(-c5cc(F)ccc5Cl)nn4)C[C@H]3C2)cc1 | 7.37 |
| Cc1cnn(C)c1-c1ccc(OC[C@H]2C[C@@H]3CN(CCC(C)(C)C)C[C@@H]3C2)nn1 | 6.78 |
| Cc1cnn(C)c1-c1ccc(NC(=O)[C@@H]2C[C@@H]3CN(CCC(C)(C)C)C[C@@H]3C2)nn1 | 6.39 |
| FC1(F)CCCN(c2ccc(N[C@H]3C[C@@H]4CN(CC5CCOCC5)C[C@@H]4C3)nn2)C1 | 8.68 |
| Cn1cc(-c2ccc(N[C@H]3C[C@@H]4CN(CC5CCOCC5)C[C@@H]4C3)nn2)cn1 | 8.38 |
| Cc1cnn(C)c1-c1ccc(NC(=O)[C@H]2C[C@@H]3CN(CCC(C)(C)C)C[C@@H]3C2)nn1 | 6.62 |

###

- TARGET_SYSTEM: human mAChR M4 (Homo sapiens, UniProt P08173)
- Construct: expressed in transfected cells; host or cells: CHO-K1 (ATCC), stably co-expressing chimeric G protein Gqi5
- Sequence (P08173 1-479): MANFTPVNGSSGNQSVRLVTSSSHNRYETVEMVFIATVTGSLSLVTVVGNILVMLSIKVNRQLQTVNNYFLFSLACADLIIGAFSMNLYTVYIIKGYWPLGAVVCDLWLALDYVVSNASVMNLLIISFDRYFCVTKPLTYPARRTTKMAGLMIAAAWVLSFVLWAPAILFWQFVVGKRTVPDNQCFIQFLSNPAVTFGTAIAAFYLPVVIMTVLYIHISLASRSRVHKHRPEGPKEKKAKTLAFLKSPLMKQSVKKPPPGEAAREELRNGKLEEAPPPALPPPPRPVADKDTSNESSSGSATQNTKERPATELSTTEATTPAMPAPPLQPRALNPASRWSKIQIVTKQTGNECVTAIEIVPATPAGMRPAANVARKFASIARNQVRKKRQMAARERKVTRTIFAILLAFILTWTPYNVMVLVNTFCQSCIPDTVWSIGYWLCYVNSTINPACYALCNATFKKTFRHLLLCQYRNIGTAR
- METHOD_DESCRIPTION: mAChR M4 cell-based functional assay (calcium mobilization, EC80 acetylcholine), human M4
- EXPERIMENTAL_CONTEXT: Table 9; human M4; % ACh maximum at 30 μM
Mark met for Emin under 4%, not met if at or over.

| COMPOUND | CATEGORY_LABEL |
| --- | --- |
| CC(C)(C)CCN1C[C@H]2CC(COc3ccc(-c4cc(F)ccc4Cl)nn3)C[C@H]2C1 (stereo partly shown) | met |
| Cc1cnn(C)c1-c1ccc(OCC2C[C@@H]3CN(Cc4ccccc4F)C[C@@H]3C2)nn1 (stereo partly shown) | not met |
| Fc1ccc(Cl)c(-c2ccc(OCC3C[C@@H]4CN(CC5CCOCC5)C[C@@H]4C3)nn2)c1 (stereo partly shown) | not met |
| Cc1cccnc1CN1C[C@H]2C[C@@H](Oc3ccc(-c4cc(F)ccc4Cl)nn3)C[C@H]2C1 | not met |
| Cc1nn(C)cc1-c1ccc(N[C@@H]2C[C@@H]3CN(CC45CC6CC(CC(C6)C4)C5)C[C@@H]3C2)c(F)c1F | not met |
| Cc1nn(C)cc1-c1ccc(N[C@@H]2C[C@@H]3CN(CC4CCCCCC4)C[C@@H]3C2)c(F)c1F | not met |
| Cc1cnn(C)c1-c1ccc(NC(=O)C2C[C@@H]3CN(CCC(C)(C)C)C[C@@H]3C2)nn1 (stereo partly shown) | met |
| Cc1cnn(C)c1-c1ccc(N[C@H]2C[C@@H]3CN(CC4CCCCO4)C[C@@H]3C2)nn1 (stereo partly shown) | not met |
| Cc1nn(C)cc1-c1ccc(OCC2C[C@@H]3CN(CC4CCOCC4)C[C@@H]3C2)nn1 (stereo partly shown) | not met |
| Cc1cnn(C)c1-c1ccc(NCCC2C[C@@H]3CN(CC45CC6CC(CC(C6)C4)C5)C[C@@H]3C2)nn1 (stereo partly shown) | met |
| Cc1nn(C)cc1-c1ccc(N[C@H]2C[C@@H]3CN(CC45CC6CC(CC(C6)C4)C5)C[C@@H]3C2)nn1 | not met |
| Cc1cnn(C)c1-c1ccc(N[C@H]2C[C@@H]3CN(CC4CCCCC4)C[C@@H]3C2)nn1 | not met |
| Cc1cnn(C)c1-c1ccc(OCC2C[C@@H]3CN(Cc4ccc(F)cc4)C[C@@H]3C2)nn1 (stereo partly shown) | not met |
| Cc1nn(C)cc1-c1ccc(N[C@H]2C[C@@H]3CN(CC(C)C(C)(C)C)C[C@@H]3C2)nn1 (stereo partly shown) | met |
| Cc1cccnc1CN1C[C@H]2C[C@H](CNc3ccc(-c4c(C)cnn4C)nn3)C[C@H]2C1 | not met |
| Cc1cnn(C)c1-c1ccc(NC[C@H]2C[C@@H]3CN(CC(C)C(C)(C)C)C[C@@H]3C2)nn1 (stereo partly shown) | not met |
| Fc1ccc(Cl)c(-c2ccc(NC[C@H]3C[C@@H]4CN(CC5CCOCC5)C[C@@H]4C3)nn2)c1 | met |
| Cc1cccnc1CN1C[C@H]2CC(CCNc3ccc(-c4c(C)cnn4C)nn3)C[C@H]2C1 (stereo partly shown) | met |
| Fc1ccc(Cl)c(-c2ccc(N[C@H]3C[C@@H]4CN(Cc5ccccc5F)C[C@@H]4C3)nn2)c1 | not met |
| Cc1nn(C)cc1-c1ccc(OCC2C[C@@H]3CN(Cc4ccc(F)cc4)C[C@@H]3C2)nn1 (stereo partly shown) | not met |
| Cc1cnn(C)c1-c1ccc(NC(=O)C2CC3CN(CC4CC5C=CC4C5)CC3C2)nn1 (stereo not shown) | met |
| Cc1nn(C)cc1-c1ccc(N[C@@H]2C[C@@H]3CN(CC4CCCCC4)C[C@@H]3C2)c(F)c1F | not met |
